System: MS2 coat protein
measurement protocol: apparent KD of MS2 coat protein; designed switch direction (-1 OFF switch, 1 ON switch): -1; higher = weaker reporter binding
assay context: input ligand: FMN 200 uM
// label = TRUE if apparent KD of MS2 coat protein is not less than 40 nM, otherwise FALSE

| ordered residues | class assignment |
| --- | --- |
| AGGGUUUGAGGAUAUAUCUGGUGGGACAUGAGGAUCACCCAUGUUCAUGUCGUAUCCUCAGUAGAAGGCAGACAGG [Eternabot (Original) Solution 14] (Eterna round: R97, puzzle: Exclusion 5) | FALSE |
| CUUAUGUAAGGAUAUGCCUGGCCGUGAGGCCAAAUUGAAUAGCAGAAGGUACAUGAGGAUCACCCAUGUACGGG [jl-ex4-4.63 ViennaUCT mod] (Eterna round: R97, puzzle: Exclusion 4) | TRUE |
| ACUCAGUGAGGAUAUCGCCAAAGAGCCGUAACGGCCUUUGAUGAGAAGGCACAUGAGGAUCACCCAUGUAAGCA [EX4 C.1] (Eterna round: R97, puzzle: Exclusion 4) | TRUE |

Query: Say whether GUAAAACAUGUAGGAUAUGCGUGGCGAAGCUAUGCAGAAGGACAUGAGGAUCACCCAUGUUAAAGCGUCUGCGUACAGAUGCAA [Mat - Exclusion NG 1 - Mod of JL - D94] (Eterna round: R96, puzzle: Exclusion NG 1) shows apparent KD of MS2 coat protein of 40 nM or more.
Result: TRUE

Query: Determine whether measured apparent KD of MS2 coat protein meets or exceeds 40 nM for GAUCGACAUGAGGAUCACCCAUGUCAGGAUAUGCAACGGACAAAACGAUACGUCAUAGGUAGAAGGGACUGUCU [Eternabot (Original) Solution 2] (Eterna round: R97, puzzle: Exclusion 1)
Result: FALSE

Query: Textbook exercise: given the entry AAUUUGCAAGCGAGAUCCCACAUGAGGAUCACCCAUGUGCUCGUCUUAUAAGGUACUGUGACGAUAGUCACGGUACC [Mat - Sensor, turn-off var - Eli Mod - D93] (Eterna round: R97, puzzle: Sensor, turn-off variant 1) , state whether its apparent KD of MS2 coat protein is greater than or equal to 40 nM.
Result: FALSE

meta.source: the supplement of paper PMC9170038
